These data points were gathered from patent US20220306744A1.

# experimental system: T1, human PD-1 expressed on cells (CHO TREX human PD1 cell line, full-length human PD-1 sequence) (human, UniProt Q15116 21-288)
# T1 construct: Also used for human PD-1 on Jurkat reporter cells, on PathHunter cells and on PHA-stimulated human CD4+ T cells; also called CHO human PD1 cells; CHO human PD-1 cells
# T1 sequence (Q15116 21-288): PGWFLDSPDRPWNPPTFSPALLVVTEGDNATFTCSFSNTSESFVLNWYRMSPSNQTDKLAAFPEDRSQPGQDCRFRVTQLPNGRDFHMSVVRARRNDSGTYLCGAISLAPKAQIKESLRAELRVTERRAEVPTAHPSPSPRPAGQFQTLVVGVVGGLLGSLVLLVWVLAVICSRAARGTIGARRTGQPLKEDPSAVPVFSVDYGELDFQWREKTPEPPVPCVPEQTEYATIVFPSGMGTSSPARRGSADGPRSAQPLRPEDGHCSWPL
# measurement protocol: FMAT: inhibition of PDL-2 (100 pM) binding to CHO human PD-1 cells
# Description: Purified VH were serially diluted in FMAT assay buffer and tested for binding to CHO human PD-1 cells as described above and for inhibition of human PD-L1/PD-L2 binding to CHO human PD-1 cells. All reagents and serially diluted VH were prepared in FMAT assay buffer. […] Plates were incubated for 2 hours at room temperature then fluorescence measured in the FL2 (502 nm-537 nm) and FL5 (677-800 nm) channels on the Mirrorball plate reader (TTP) following excitation at 488 nm and 640 nm. […]
observable: IC50 (nM)
Record the value in nM, omitting the unit from your answer.

Ask | Fill blank: measured IC50 of the binder 1.57b (VHH) VHH: QVQLVESGGGLVKPGGSLRLSCAASGFTFSDNSMTWMRQAPGKGLEWVSYISSGGGVIFYADSVKGRFTISRDNAKNSLYLQMNSLRADDTAVYYCAREAPLRLGESPHDAFDISGQGTMVTVSS is ____.
Reply | 2.3

Ask | Fill blank: measured IC50 of the binder 1.57b-4GS-1.1a (other, Biparatopic VH-linker-VH) QVQLVESGGGLVKPGGSLRLSCAASGFTFSDNSMTWMRQAPGKGLEWVSYISSGGGVIFYADSVKGRFTISRDNAKNSLYLQMNSLRADDTAVYYCAREAPLRLGESPHDAFDISGQGTMVTVSSGGGGSGGGGSGGGGSGGGGSEVQLLESGGGSVQPGRSLRLSCAASGFTFDDHAMHWVRQAPGKGLEWVSGISWNSGSMGYADSVKDRFTISRDNAKSSLYLQMNSLRAEDTALYYCVREKGPGLTGSTADYYGLDVWGQGTMVTVSS is ____.
Reply | 1.2

Ask | Fill blank: measured IC50 of the binder 1.92b-4GS-1.62a (other, Biparatopic VH-linker-VH; also called 1.92-4GS-1.62a; 1.92b-4gs-2.12a) EVQLVESGGGLVKPGGSLRLSCAASGFTFSDESMTWMRQAPGKGLEWVSYISSGGGVKFYADSVKGRFTISRDNAKNSLYLQMNSLRAEDTAVYYCAREAPLRLGESPHDAFDISGQGTMVTVSSGGGGSGGGGSGGGGSGGGGSEVQLVESGGGVVRPGGSLRLSCAASGFTFDDYAMSWVRQAPGKGLEWVSGITWNAGSTGYADSVKGRFTISRDNAKNSLYLQMNSLRAEDTALYYCVRDKYSYAWSYDDFDIWGQGTMVTVSS is ____.
Reply | 1.6

Ask | Fill blank: measured IC50 of the binder 1.92b-4GS-1.39a (other, Biparatopic VH-linker-VH; built from its parts here because it is not clear whether 1112 is the protein or the nucleic acid) EVQLVESGGGLVKPGGSLRLSCAASGFTFSDESMTWMRQAPGKGLEWVSYISSGGGVKFYADSVKGRFTISRDNAKNSLYLQMNSLRAEDTAVYYCAREAPLRLGESPHDAFDISGQGTMVTVSSGGGGSGGGGSGGGGSGGGGSEVQLVESGGGLVQPGRSLRLSCAASGFTFDDYALHWVRQAPGKDLEWVSGISWNGGSYGYADSVKGRFTISRDNAKNSLYLQMNSLRAEDTALYYCVREKGPGLTGSTADYYGLDAWGQGTMVTVSS is ____.
Reply | 1.9
